Listing of recorded relative viability by entry.
test system: NCI-H1651; test: relative viability (nuclei count vs DMSO), 5 days (fraction); higher = more cells survive; details: first compound 0.04 µM

| Compound | relative viability |
| --- | --- |
| Clc1ccc(Nc2nnc(Cc3ccncc3)c3ccccc23)cc1 [Vatalanib] + C[C@]1(O)C[C@@H](c2nc(-c3ccc4ccc(-c5ccccc5)nc4c3)c3c(N)nccn32)C1 [Linsitinib] (partner 1 µM) | 0.971 |
| COc1cc(N2CCC(C(N)=O)CC2)ccc1Nc1nc(N)c(Cl)c(Nc2ccccc2S(=O)(=O)C(C)C)n1 [HG-5-88-01] + COc1cccc2cc(-c3nc([C@H]4CC[C@H](C(=O)O)CC4)n4ncnc(N)c34)[nH]c12 [OSI-027] (partner 0.5 µM) | 0.748 |
| C[C@@H]1CN(CC(=O)Nc2ccc3c(c2)Cc2cccc(-c4cc(=O)cc(N5CCOCC5)o4)c2S3)C[C@H](C)O1 + O=C(CCCCCCC(=O)Nc1ccccc1)NO [Vorinostat] (partner 1 µM) | 0.541 |
| C[C@@H]1CN(CC(=O)Nc2ccc3c(c2)Cc2cccc(-c4cc(=O)cc(N5CCOCC5)o4)c2S3)C[C@H](C)O1 + CC1(C)CCC(c2ccc(Cl)cc2)=C(CN2CCN(c3ccc(C(=O)NS(=O)(=O)c4ccc(N[C@H](CCN5CCOCC5)CSc5ccccc5)c(S(=O)(=O)C(F)(F)F)c4)cc3)CC2)C1 [Navitoclax] (partner 0.5 µM) | 1.05 |
| Clc1ccc(Nc2nnc(Cc3ccncc3)c3ccccc23)cc1 [Vatalanib] + Cc1nc(NC(=O)N2CCC[C@H]2C(N)=O)sc1-c1ccnc(C(C)(C)C(F)(F)F)c1 [Alpelisib] (partner 2 µM) | 0.869 |
| Clc1ccc(Nc2nnc(Cc3ccncc3)c3ccccc23)cc1 [Vatalanib] + C[C@@H](Oc1cc(-c2cnn(C3CCNCC3)c2)cnc1N)c1c(Cl)ccc(F)c1Cl [Crizotinib] (partner 1 µM) | 0.865 |
| C[C@@H]1CN(CC(=O)Nc2ccc3c(c2)Cc2cccc(-c4cc(=O)cc(N5CCOCC5)o4)c2S3)C[C@H](C)O1 + C[C@]1(O)C[C@@H](c2nc(-c3ccc4ccc(-c5ccccc5)nc4c3)c3c(N)nccn32)C1 [Linsitinib] (partner 1 µM) | 1.01 |
| C[C@@H]1CN(CC(=O)Nc2ccc3c(c2)Cc2cccc(-c4cc(=O)cc(N5CCOCC5)o4)c2S3)C[C@H](C)O1 + Cc1nc(Nc2ncc(C(=O)Nc3c(C)cccc3Cl)s2)cc(N2CCN(CCO)CC2)n1 [Dasatinib] (partner 0.075 µM) | 0.47 |
